# Measured on: human NTCP (Homo sapiens, UniProt Q14973)
# Sequence (Q14973 whole entry): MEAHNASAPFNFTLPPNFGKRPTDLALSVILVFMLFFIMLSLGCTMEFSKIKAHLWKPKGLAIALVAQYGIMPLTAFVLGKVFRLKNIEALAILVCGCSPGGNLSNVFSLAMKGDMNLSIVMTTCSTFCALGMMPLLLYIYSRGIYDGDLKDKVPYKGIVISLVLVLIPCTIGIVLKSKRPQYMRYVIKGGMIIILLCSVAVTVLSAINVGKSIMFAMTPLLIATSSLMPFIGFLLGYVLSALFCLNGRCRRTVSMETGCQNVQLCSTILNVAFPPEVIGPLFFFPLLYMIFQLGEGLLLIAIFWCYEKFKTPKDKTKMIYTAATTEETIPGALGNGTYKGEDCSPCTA
# Procedure summary: Screening fluorescent competitive Myrcludex B-FITC binding assay (96-well, 10 µM drug)
# Experimental parameters: Prestwick library screen, Myrcludex B-FITC binding, 10 µM drug
Structures can show the parent of a compound that is named as a salt.
Measured endpoint: B-score binding assay

Check out these entries, answers already filled in.
Molecule	Measured endpoint	Value measured
CCN(CC)Cc1cc(Nc2ccnc3cc(Cl)ccc23)ccc1O.Cl.Cl.O.O [Amodiaquin dihydrochloride dihydrate]	B-score binding assay	1.445
CC[C@@H](C(N)=O)N1CCCC1=O [Levetiracetam]	B-score binding assay	0.117
COc1ccc(C(=O)NCc2cccnc2)cc1C(=O)NCc1cccnc1.O [Picotamide monohydrate]	B-score binding assay	0.672
CCCCN(CCCC)CCCOC(=O)c1ccc(N)cc1 [Butacaine]	B-score binding assay	0.529
CCCN(CCC)CCc1cccc2c1CC(=O)N2 [Ropinirole HCl]	B-score binding assay	2.082

Please give measured B-score binding assay of the following entry: NS(=O)(=O)c1cc2c(cc1Cl)N=C(CSCc1ccccc1)NS2(=O)=O [Benzthiazide]
0.39

Identify the reported B-score binding assay for the following entry. CCN1CCCC1CNC(=O)c1cc(S(N)(=O)=O)ccc1OC (stereo not drawn) [Sulpiride]
0.598

Indicate the recorded B-score binding assay value for this molecule: CN[C@@H]1C[C@@H](c2ccc(Cl)c(Cl)c2)c2ccccc21 [Indatraline hydrochloride]
0.336

Item CCN(CC)C(C)CN1c2ccccc2Sc2ccccc21 (stereo not drawn) [Ethopropazine hydrochloride] : provide B-score binding assay
-0.236

###

# Procedure summary: in vitro
# Experimental parameters: human
Measured endpoint: viability at 2 h, 10 µM
Answer as a quantity: numeral, then unit.

// Input: O=C(O)Cc1cc(I)c(Oc2ccc(O)c(I)c2)c(I)c1 [TRIAC, 3,3′,5-Triiodothyroacetic acid] . Output its viability at 2 h, 10 µM only.
105%

###

Catalogue of B-score functional assay readings, one per entry.
# Measured on: human NTCP (Homo sapiens)
# Procedure summary: Screening taurocholate uptake assay (96-well, [14C]taurocholate, 10 µM drug)
Note: the reply should be a number with no unit written.

Reference set (2 entries):
Compound	Measured on	B-score functional assay
COc1ccc2cc([C@@H](C)C(=O)[O-])ccc2c1.[Na+] [(R) -Naproxen sodium salt]	human NTCP (Homo sapiens)	-0.341
CNS(=O)(=O)Cc1ccc2[nH]cc(CCN(C)C)c2c1 [Sumatriptan succinate]	human NTCP (Homo sapiens)	0.496

Next up:
For the compound CC(C)NC[C@@H](O)COc1cccc2ccccc12.Cl [(R)-Propranolol hydrochloride] , give its measured B-score functional assay value.
1.016

###

# Measured on: human NTCP (Homo sapiens)
# Procedure summary: Screening taurocholate uptake assay (96-well, [14C]taurocholate, 10 µM drug)
# Experimental parameters: screen, 10 µM drug, taurocholate uptake
Where a name gives a salt, the structure may show the parent alone.
Field: label. Allowed values: condition met (B-score functional assay < -0.6) or condition not met (B-score functional assay >= -0.6).

Some entries whose results are on file:
Molecule	Measured on	Label
CC[N+](C)(C)Cc1ccccc1Br [Bretylium tosylate]	human NTCP (Homo sapiens)	condition met
NNCCc1ccccc1 [Phenelzine sulfate]	human NTCP (Homo sapiens)	condition not met
C[C@@H](c1ncncc1F)[C@](O)(Cn1cncn1)c1ccc(F)cc1F [Voriconazole]	human NTCP (Homo sapiens)	condition not met
CN(C)CCC=C1c2ccccc2COc2ccccc21 [Doxepin hydrochloride]	human NTCP (Homo sapiens)	condition met

Now look at this entry.
API: query returns whether the molecule falls strictly under -0.6 in B-score functional assay. Query: C[N+](C)(CCOc1ccccc1)Cc1ccccc1.O=C([O-])c1cc2ccccc2cc1O [Bephenium hydroxynaphthoate]
condition not met
